study-system: Avi-KRAS G12D (1-169) GppNHp/RAF1 RBD-3xFLAG (52-151) (Homo sapiens, UniProt P01116, G12D)
Construct: Avi-KRAS G12D (1-169)
Sequence (P01116 1-169 isoform P01116-2 G12D): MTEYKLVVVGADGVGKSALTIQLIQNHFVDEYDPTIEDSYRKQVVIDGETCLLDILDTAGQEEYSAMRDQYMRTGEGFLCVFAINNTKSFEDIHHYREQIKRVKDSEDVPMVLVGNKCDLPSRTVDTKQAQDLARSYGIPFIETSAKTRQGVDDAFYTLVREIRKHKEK
assay-details: Raf1-KRAS G12D-GppNHP disruption HTRF assay (Biological Example 1)
Type: binding
test-conditions: KRAS G12D, GppNHp-loaded; class symbols
measurement-type: IC50

{"molecule": "CCN(c1nc(OC[C@@]23CCCN2C[C@H](F)C3)nc2c(F)c(-c3ccc(F)c4sc(N)c(C#N)c34)c(C(F)(F)F)cc12)[C@H]1CCN(C(=O)c2cnsc2)C1 (atropisomer, axis not shown) [Compound 729]", "study-system": "Avi-KRAS G12D (1-169) GppNHp/RAF1 RBD-3xFLAG (52-151) (Homo sapiens, UniProt P01116, G12D)", "IC50": "< 100 nM"}
{"molecule": "CCN(c1nc(OC[C@@]23CCCN2C[C@H](F)C3)nc2c(F)c(-c3ccc(F)c4sc(N)c(C#N)c34)c(C(F)(F)F)cc12)[C@H]1CCN(C(=O)OC)[C@H]1C (atropisomer, axis not shown) [Compound 799]", "study-system": "Avi-KRAS G12D (1-169) GppNHp/RAF1 RBD-3xFLAG (52-151) (Homo sapiens, UniProt P01116, G12D)", "IC50": "1000 to 10000 nM"}
{"molecule": "CCN(c1nc(OC[C@@]23CCCN2C[C@H](F)C3)nc2c(F)c(-c3ccc(F)c4sc(N)c(C#N)c34)c(C(F)(F)F)cc12)[C@H]1C[C@@H](C)N(C(=O)N2CC(OC)C2)C1 (atropisomer, axis not shown) [Compound 734]", "study-system": "Avi-KRAS G12D (1-169) GppNHp/RAF1 RBD-3xFLAG (52-151) (Homo sapiens, UniProt P01116, G12D)", "IC50": "100 to 1000 nM"}
{"molecule": "CN(C)C(=O)c1nn2c(c1C(F)(F)F)CN(c1nc(OC[C@@]34CCCN3C[C@H](F)C4)nc3c(F)c(-c4ccc(F)c5sc(N)c(C#N)c45)c(C(F)(F)F)cc13)CC2 (atropisomer, axis not shown) [Compound 596]", "study-system": "Avi-KRAS G12D (1-169) GppNHp/RAF1 RBD-3xFLAG (52-151) (Homo sapiens, UniProt P01116, G12D)", "IC50": "< 100 nM"}
{"molecule": "CCN(c1nc(OC[C@@]23CCCN2C[C@H](F)C3)nc2c(F)c(-c3ccc(F)c4sc(N)c(C#N)c34)c(C(F)(F)F)cc12)[C@H]1CCN(C(=O)C2CCOCC2)C1 (atropisomer, axis not shown) [Compound 578]", "study-system": "Avi-KRAS G12D (1-169) GppNHp/RAF1 RBD-3xFLAG (52-151) (Homo sapiens, UniProt P01116, G12D)", "IC50": "< 100 nM"}

State the recorded IC50 for this entry: [2H]C([2H])([2H])OC(=O)N1CC[C@H](N(CC)c2nc(OC[C@@]34CCCN3C[C@H](F)C4)nc3c(F)c(-c4ccc(F)c5sc(N)c(C#N)c45)c(C(F)(F)F)cc23)C1 (atropisomer, axis not shown) [Compound 659] < 100 nM

Try N#Cc1c(N)sc2c(F)ccc(-c3c(C(F)(F)F)cc4c(N(Cc5cccnc5N)C5CC5)nc(OC[C@@]56CCCN5C[C@H](F)C6)nc4c3F)c12 (atropisomer, axis not shown) [Compound 602] next. 1000 to 10000 nM

Try CCN(c1nc(OC[C@@]23CCCN2C[C@H](F)C3)nc2c(F)c(-c3ccc(F)c4sc(N)c(C#N)c34)c(C(F)(F)F)cc12)[C@H]1CCN(C(=O)C2CC2)[C@@H]1C (atropisomer, axis not shown) [Compound 579] next. < 100 nM

Try CCN(c1nc(OC[C@@]23CCCN2C[C@H](F)C3)nc2c(F)c(-c3ccc(F)c4sc(N)c(C#N)c34)c(C(F)(F)F)cc12)[C@H]1C[C@H](COC)N(C(=O)C2CC2)C1 (atropisomer, axis not shown) [Compound 696] next. < 100 nM

Try CCN(c1nc(OC[C@@]23CCCN2C[C@H](F)C3)nc2c(F)c(-c3ccc(F)c4sc(N)c(C#N)c34)c(C(F)(F)F)cc12)[C@H]1CCN(C(=O)C2CC(OC)C2)C1 (stereo partly shown) [Compound 777] next. < 100 nM

Try CCOC1CN(C(=O)N2CC[C@H](N(CC)c3nc(OC[C@@]45CCCN4C[C@H](F)C5)nc4c(F)c(-c5ccc(F)c6sc(N)c(C#N)c56)c(C(F)(F)F)cc34)C2)C1 (atropisomer, axis not shown) [Compound 758] next. < 100 nM
